biological target: griffithsin (GRFT) (Griffithsia sp.); format: binding; conditions: isothermal titration calorimetry, binding to GRFT; value ± spread
Sequence (P84801 whole entry): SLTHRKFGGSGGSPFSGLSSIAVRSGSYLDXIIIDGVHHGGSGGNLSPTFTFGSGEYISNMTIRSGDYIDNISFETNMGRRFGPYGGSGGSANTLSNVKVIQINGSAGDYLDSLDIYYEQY
Hi there, I'd appreciate the recorded n (stoichiometry of binding) for every entry that follows.

Below: 3 compounds and their reported n (stoichiometry of binding).
## Input Specify n (stoichiometry of binding) for CC(=O)N[C@@H](CCCNC(=O)CO[C@H]1O[C@H](CO)[C@@H](O)[C@H](O)[C@@H]1O)C(=O)N[C@@H](CCCNC(=O)CO[C@H]1O[C@H](CO)[C@@H](O)[C@H](O)[C@@H]1O)C(=O)N[C@@H](CCCNC(=O)CO[C@H]1O[C@H](CO)[C@@H](O)[C@H](O)[C@@H]1O)C(N)=O and stop.
## Output 0.94 ± 0.19

## Input Give the measured n (stoichiometry of binding) for NC(=O)[C@H](CCCCNC(=O)[C@H](CCCCNC(=O)CO[C@H]1O[C@H](CO)[C@@H](O)[C@H](O)[C@@H]1O)NC(=O)CO[C@H]1O[C@H](CO)[C@@H](O)[C@H](O)[C@@H]1O)NC(=O)[C@H](CCCCNC(=O)CO[C@H]1O[C@H](CO)[C@@H](O)[C@H](O)[C@@H]1O)NC(=O)CO[C@H]1O[C@H](CO)[C@@H](O)[C@H](O)[C@@H]1O
## Output 1.96 ± 0.09

## Input Answer with the recorded n (stoichiometry of binding) for the compound listed here: NC(=O)[C@H](CCCCNC(=O)CNC(=O)[C@H](CCCCNC(=O)CO[C@H]1O[C@H](CO)[C@@H](O)[C@H](O)[C@@H]1O)NC(=O)CO[C@H]1O[C@H](CO)[C@@H](O)[C@H](O)[C@@H]1O)NC(=O)CNC(=O)[C@H](CCCCNC(=O)CO[C@H]1O[C@H](CO)[C@@H](O)[C@H](O)[C@@H]1O)NC(=O)CO[C@H]1O[C@H](CO)[C@@H](O)[C@H](O)[C@@H]1O
## Output 1.45 ± 0.12

Switching to the query record.
## Input Query n (stoichiometry of binding) for CC(=O)N[C@@H](CCCCNC(=O)CO[C@H]1O[C@H](CO)[C@@H](O)[C@H](O)[C@@H]1O)C(=O)NCC(=O)N[C@@H](CCCCNC(=O)CO[C@H]1O[C@H](CO)[C@@H](O)[C@H](O)[C@@H]1O)C(=O)NCC(=O)N[C@@H](CCCCNC(=O)CO[C@H]1O[C@H](CO)[C@@H](O)[C@H](O)[C@@H]1O)C(N)=O
## Output 0.96 ± 0.24
